- TESTED_ON: T1, full-length beta-Catenin (Uniprot ID P35222) (Homo sapiens (Human), UniProt P35222 2-781)
- T1 construct: The fluorescence polarization protocol says only 'full-length'; also called bCat; B-Catenin
- T1 sequence: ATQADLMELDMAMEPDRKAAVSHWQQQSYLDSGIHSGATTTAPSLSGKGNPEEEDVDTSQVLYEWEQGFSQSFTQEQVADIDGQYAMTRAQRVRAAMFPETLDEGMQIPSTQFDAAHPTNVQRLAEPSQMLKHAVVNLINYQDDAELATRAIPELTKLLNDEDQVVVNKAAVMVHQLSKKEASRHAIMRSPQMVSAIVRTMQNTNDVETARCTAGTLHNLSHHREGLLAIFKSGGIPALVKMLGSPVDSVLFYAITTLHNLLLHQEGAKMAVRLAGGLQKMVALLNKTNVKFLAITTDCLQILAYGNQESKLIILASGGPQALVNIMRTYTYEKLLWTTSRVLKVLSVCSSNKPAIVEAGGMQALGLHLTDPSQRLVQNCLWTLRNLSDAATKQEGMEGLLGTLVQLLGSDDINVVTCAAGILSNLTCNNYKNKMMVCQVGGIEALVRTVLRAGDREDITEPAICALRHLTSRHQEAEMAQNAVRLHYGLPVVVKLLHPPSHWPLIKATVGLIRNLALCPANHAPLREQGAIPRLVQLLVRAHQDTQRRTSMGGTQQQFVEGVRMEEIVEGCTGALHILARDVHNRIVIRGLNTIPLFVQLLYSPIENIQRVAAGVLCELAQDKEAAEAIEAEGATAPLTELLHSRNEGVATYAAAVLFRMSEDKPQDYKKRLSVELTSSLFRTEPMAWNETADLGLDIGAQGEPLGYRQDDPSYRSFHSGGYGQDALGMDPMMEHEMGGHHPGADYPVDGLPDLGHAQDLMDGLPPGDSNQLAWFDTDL
- ASSAY_TEXT: fluorescence polarization competition; full-length beta-catenin + 5FAM-TCF4(10-53) probe; peptide titrated
Starred links: 1 amine or outer side, 2 acyl side, 3 side chain; linkers in the order of their positions; H or OH if unused. Positions of bridges follow the written chain, without caps; N, C: chain ends. Non-standard residues stand in square brackets, D forms with d. Primed or numbered codes have the meaning given here. *: point of attachment. B5(5) = 2,2-bis(4-pentenyl)glycine, 2-amino-2-(pent-4-en-1-yl)hept-6-enoic acid (stitching residue), C=CCCCC(CCCC=C)(N[*:1])C(=O)[*:2]; Bta = N[C@@H](Cc1csc2ccccc12)C(=O)O; αAllylPro = C=CC[C@@]1(C(=O)O)CCCN1; S8 = C=CCCCCCC[C@](C)(N)C(=O)O; Ms = CS(=O)(=O)*
READOUT_LABEL: pEC50
Give bare numbers, as −log10 of the molar value.

-- ask Given Ms-[αAllylPro]DI[B5(5)]DEAAFQ[S8]F[Bta]Q-NH2 (staple 1-4, 4-11, Stapled peptide composition; also called MeSO2-PL3-Asp-Ile-B5-Asp-Glu-Ala-Ala-Phe-Gln-S8-Phe-BztA-Gln-NH2) [I-710] , respond with its pEC50.
-- reply 7.14

In the following, a different binder is considered.
-- ask Output pEC50 of Ms-[αAllylPro]DI[B5(5)]DEAAFQ[S8]F[Bta]Q-NH2 (staple 1-4, 4-11, Stapled peptide composition; Later-eluting HPLC isomer peak (I-710 is the earlier one); also called MeSO2-PL3-Asp-Ile-B5-Asp-Glu-Ala-Ala-Phe-Gln-S8-Phe-BztA-Gln-NH2) [I-711]
-- reply 7.06
